assay: Cytotoxicity against human HaCaT cells assessed as cell viability incubated for 48 hrs by MTT assay; assay type: toxicity, cell-based
Here the recorded IC50 at 48 h is given for each entry.
QUANTITY: IC50 at 48 h (µM)

COMPOUND | VALUE_REPORTED
O=c1[nH]cc(F)c(=O)[nH]1 [FLUOROURACIL] | 30
CN(C)CCNCCc1ccc2c(Cl)cc(Cl)c(N)c2n1.Cl.Cl.Cl | 41.1

---

experiment: Selectivity index, ratio of IC50 for cytotoxicity against human HaCaT cells assessed as cell viability to IC50 for cytotoxicity against human HepG2 cells assessed as cell viability; type: toxicity, cell-based; settings: HaCaT cells versus HepG2 cells

GIVEN_SMILES | selectivity ratio
CN(C)CCNCCc1ccc2c(Cl)cc(Cl)c(N)c2n1.Cl.Cl.Cl | 2.5
